biological target: human Kv7.2+3 (Homo sapiens, UniProt O43525+O43526); construct: expressed in transfected cells; host or cells: HEK293; test: FLIPR-based characterization of Kv7.2+3 modulators (thallium (I) sensitive BTC fluorescence assay); format: cell-based; conditions: HEK293 cells over-expressing human Kv7.2+3; Tl+ influx, FLIPR; 50% of channel activity compared to retigabine control responses; mean of at least two test runs

SMILES STR: Cc1cc(N2CCc3ncccc3C2)nc(N2CCC(F)(F)CC2)c1NC(=O)c1scnc1C
EC50, nM: 6900
//
SMILES STR: Cc1cc(N2CCc3ncccc3C2)nc(N2CCC(F)(F)CC2)c1NC(=O)c1nccn1C
EC50, nM: 1300
//
SMILES STR: Cc1cc(N2CCc3ncccc3C2)nc(N2CCC(F)(F)CC2)c1NC(=O)c1conc1C
EC50, nM: 1200
//
SMILES STR: Cc1cc(N2CCc3ncccc3C2)nc(N2CCC(F)(F)CC2)c1NC(=O)c1ncoc1C1CC1
EC50, nM: 73

----------
target: human Kv7.2+3 (Homo sapiens, UniProt O43525+O43526); construct: expressed in transfected cells; host or cells: HEK293; assay: FLIPR-based characterization of Kv7.2+3 modulators (thallium (I) sensitive BTC fluorescence assay); type: cell-based; settings: HEK293 cells over-expressing human Kv7.2+3; maximal response relative to the reference (retigabine) response; mean of at least two test runs; read-out: Efficacy
PARAMETER: Emax

SMILES STR: Cc1cc(N2CCc3ncccc3C2)nc(N2CCC(F)(F)CC2)c1NC(=O)Cc1cc(F)cc(F)c1
RECORDED RESULT: 104%
//
SMILES STR: Cc1ccoc1C(=O)Nc1c(C)cc(N2CCc3ncccc3C2)nc1N1CCC(F)(F)CC1
RECORDED RESULT: 81%
//
SMILES STR: Cc1cc(N2CCc3ncccc3C2)nc(N2CCC(F)(F)CC2)c1NC(=O)c1cnsc1C
RECORDED RESULT: 71%
//
SMILES STR: Cc1ccoc1C(=O)Nc1c(C)cc(N2CCc3ncccc3C2)nc1N1CC[C@@H](F)C1
RECORDED RESULT: 101%

----------
Each record here notes measured Emax.
biological target: human Kv7.2+3 (Homo sapiens, UniProt O43525+O43526); construct: expressed in transfected cells; host or cells: HEK293; experiment: FLIPR-based characterization of Kv7.2+3 modulators (thallium (I) sensitive BTC fluorescence assay); format: cell-based; details: HEK293 cells over-expressing human Kv7.2+3; maximal response relative to the reference (retigabine) response; mean of at least two test runs; read-out: Efficacy

SMILES STR: Cc1cc(N2CCc3ncccc3C2)nc(N2CCC(F)(F)CC2)c1NC(=O)c1nccn1C
Emax, %: 114
//
SMILES STR: Cc1cc(N2CCc3ncccc3C2)nc(N2CCC(F)(F)CC2)c1NC(=O)c1ncoc1-c1ccccc1
Emax, %: 90
//
SMILES STR: Cc1cc(N2CCc3ncccc3C2)nc(N2CCC(F)(F)CC2)c1NC(=O)CC1CC1
Emax, %: 109
//
SMILES STR: Cc1cc(N2CCc3ncccc3C2)nc(N2CCCC2)c1NC(=O)c1cccc(F)c1
Emax, %: 24
//
SMILES STR: CCOC(=O)Nc1c(C)cc(N2CCc3ncccc3C2)nc1N1CCC(F)(F)CC1
Emax, %: 100
//
SMILES STR: Cc1cc(N2CCc3ncccc3C2)nc(N2CCCC2)c1NC(=O)CC(C)(C)C
Emax, %: 121
//
SMILES STR: Cc1cc(N2CCc3ncccc3C2)nc(N2CCC(F)(F)CC2)c1NC(=O)c1ocnc1C
Emax, %: 100
//
SMILES STR: Cc1cccnc1C(=O)Nc1c(C)cc(N2CCc3ncccc3C2)nc1N1CCC(F)(F)CC1
Emax, %: 28
//
SMILES STR: Cc1cc(N2CCc3ncccc3C2)nc(N2CCC(F)(F)CC2)c1NC(=O)c1ncoc1C1CC1
Emax, %: 34
//
SMILES STR: Cc1cc(N2CCc3ncccc3C2)nc(N2CCCC2)c1NC(=O)Cc1cc(F)cc(F)c1
Emax, %: 96
//
SMILES STR: CCc1ocnc1C(=O)Nc1c(C)cc(N2CCc3ncccc3C2)nc1N1CCC(F)(F)CC1
Emax, %: 89
//
SMILES STR: Cc1cc(N2CCc3ncccc3C2)nc(N2CCC(F)(F)CC2)c1NC(=O)c1ncoc1C
Emax, %: 105
//
SMILES STR: Cc1cc(N2CCc3ncccc3C2)nc(N2CCC(F)(F)CC2)c1NC(=O)c1scnc1C
Emax, %: 115
//
SMILES STR: Cc1nc(C(=O)Nc2c(C)cc(N3CCc4ncccc4C3)nc2N2CCC(F)(F)CC2)c(C)o1
Emax, %: 116
//
SMILES STR: Cc1cc(N2CCc3ncccc3C2)nc(N2CC[C@@H](F)C2)c1NC(=O)Cc1cc(F)cc(F)c1
Emax, %: 101
//
SMILES STR: Cc1cc(N2CCc3ncccc3C2)nc(N2CCC(F)(F)CC2)c1NC(=O)c1conc1C
Emax, %: 115
